For each entry below, report its IC50 value.
Target: human IGF-1R (Homo sapiens, UniProt P08069)
Construct: IGFRK and IRK enzyme used for the assay was intracellular kinase domain of human IGF-1R and human IR
Sequence (P08069 999-1274 limits assumed): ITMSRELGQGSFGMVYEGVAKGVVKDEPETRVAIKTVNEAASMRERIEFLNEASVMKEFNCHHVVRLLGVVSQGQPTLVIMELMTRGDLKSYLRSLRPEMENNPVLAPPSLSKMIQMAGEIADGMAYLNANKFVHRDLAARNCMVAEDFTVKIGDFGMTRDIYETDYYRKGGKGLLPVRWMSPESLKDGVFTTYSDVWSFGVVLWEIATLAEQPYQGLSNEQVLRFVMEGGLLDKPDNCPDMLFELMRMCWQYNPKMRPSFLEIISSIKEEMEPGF
Assay: In vitro IGF-1R kinase assay (HTRF)
Details: intracellular kinase domain GST fusion, ATP 20 μM, 1 hour at 23° C., read-out: IGFIR-Activity

NC(=O)c1[nH]c2c(NCC3(N)CCCC3)cc(Cl)cc2c1S(=O)(=O)N1CCO[C@H](COc2ccccc2)C1 | > 100 nM
CCOC(=O)N1CCC(Nc2cc(F)cc3c(S(=O)(=O)N4CCO[C@H](COc5ccccc5)C4)c(C(N)=O)[nH]c23)CC1 | < 100 nM
CCOC(=O)N1CCC(Nc2cc(Cl)cc3c(S(=O)(=O)N4CCO[C@H](COc5ccccc5)C4)c(C(N)=O)[nH]c23)CC1 | 68.5 nM
N#CCC(=O)Nc1cc(Cl)cc2c(S(=O)(=O)N3CCO[C@H](COc4ccccc4)C3)c(C(N)=O)[nH]c12 | > 100 nM
CC(C)CN1CCC(Nc2cc(Cl)cc3c(S(=O)(=O)N4CCO[C@H](COc5ccccc5)C4)c(C(N)=O)[nH]c23)CC1 | 39 nM
NC(=O)c1[nH]c2c(NC(=S)Nc3ccccc3)cc(Cl)cc2c1S(=O)(=O)N1CCO[C@H](COc2ccccc2)C1 | 1.3 nM
NC(=O)c1[nH]c2c(NC3CCCC3)cc(Cl)cc2c1S(=O)(=O)N1CCO[C@H](COc2ccccc2)C1 | > 100 nM
CC(C)(CC(=O)O)CC(=O)Nc1cc(Cl)cc2c(S(=O)(=O)N3CCO[C@H](COc4ccccc4)C3)c(C(N)=O)[nH]c12 | 55.8 nM

Provide the reported IC50 of each entry below, same order.
1. NC(=O)c1[nH]c2c(NC3CCNC3)cc(Cl)cc2c1S(=O)(=O)N1CCO[C@H](COc2ccccc2)C1 (stereo partly shown)
2. CC(C)(CC(=O)Nc1cc(Cl)cc2c(S(=O)(=O)N3CCO[C@H](COc4ccccc4)C3)c(C(N)=O)[nH]c12)C(=O)O
3. NC(=O)c1[nH]c2c(NCc3ccc(F)cc3)cc(Cl)cc2c1S(=O)(=O)N1CCO[C@H](COc2ccccc2)C1

48.7 nM
29.9 nM
> 100 nM

Provide the reported IC50 of each entry below, same order.
1. CCOC(=O)CCCNc1cc(Cl)cc2c(S(=O)(=O)N3CCO[C@H](COc4ccccc4)C3)c(C(N)=O)[nH]c12
2. NC(=O)c1[nH]c2c(NCc3ccc(C(=O)O)cc3)cc(Cl)cc2c1S(=O)(=O)N1CCO[C@H](COc2ccccc2)C1

1: > 100 nM; 2: < 100 nM

---

Target: human IGF-1R (Homo sapiens, UniProt P08069)
Construct: IGFRK and IRK enzyme used for the assay was intracellular kinase domain of human IGF-1R and human IR
Assay: In vitro IGF-1R kinase assay (HTRF)
Conditions: intracellular kinase domain GST fusion, ATP 20 μM, 1 hour at 23° C., read-out: IGFIR-Activity
pIC50: −log10 of the molar value.
For each entry below, report its pIC50 value.

Reference set, count: 2
CCOC(=O)CCCC(=O)Nc1cc(Cl)cc2c(S(=O)(=O)N3CCO[C@H](COc4ccccc4)C3)c(C(N)=O)[nH]c12 | > 7.00
NC(=O)c1[nH]c2c(NC3CCOCC3)cc(Cl)cc2c1S(=O)(=O)N1CCO[C@H](COc2ccccc2)C1 | > 7.00

Provide the reported pIC50 of each entry below, same order.
1. NC(=O)c1[nH]c2c(NC(=O)CCCC(=O)O)cc(Cl)cc2c1S(=O)(=O)N1CCO[C@H](COc2ccccc2)C1
2. NC(=O)c1[nH]c2c(NCC3CCCCC3)cc(Cl)cc2c1S(=O)(=O)N1CCO[C@H](COc2ccccc2)C1

1: 8.00; 2: < 7.00
